- assay_target: α5β3γ2 GABAA subtype receptor (Homo sapiens, UniProt P18507+P31644)
- Sequence (P31644 32-462): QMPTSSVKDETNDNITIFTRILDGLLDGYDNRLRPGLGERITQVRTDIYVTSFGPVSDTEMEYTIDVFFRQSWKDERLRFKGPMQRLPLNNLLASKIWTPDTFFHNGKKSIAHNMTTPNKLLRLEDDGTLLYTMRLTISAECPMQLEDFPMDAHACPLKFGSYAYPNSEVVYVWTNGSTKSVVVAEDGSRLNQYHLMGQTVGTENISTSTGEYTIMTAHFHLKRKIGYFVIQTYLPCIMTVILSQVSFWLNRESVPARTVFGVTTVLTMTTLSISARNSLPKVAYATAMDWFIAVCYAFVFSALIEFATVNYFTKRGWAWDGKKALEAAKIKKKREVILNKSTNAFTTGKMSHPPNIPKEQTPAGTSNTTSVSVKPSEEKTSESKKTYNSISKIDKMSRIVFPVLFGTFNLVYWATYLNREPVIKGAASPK
- Sequence (P28472 26-473 partner): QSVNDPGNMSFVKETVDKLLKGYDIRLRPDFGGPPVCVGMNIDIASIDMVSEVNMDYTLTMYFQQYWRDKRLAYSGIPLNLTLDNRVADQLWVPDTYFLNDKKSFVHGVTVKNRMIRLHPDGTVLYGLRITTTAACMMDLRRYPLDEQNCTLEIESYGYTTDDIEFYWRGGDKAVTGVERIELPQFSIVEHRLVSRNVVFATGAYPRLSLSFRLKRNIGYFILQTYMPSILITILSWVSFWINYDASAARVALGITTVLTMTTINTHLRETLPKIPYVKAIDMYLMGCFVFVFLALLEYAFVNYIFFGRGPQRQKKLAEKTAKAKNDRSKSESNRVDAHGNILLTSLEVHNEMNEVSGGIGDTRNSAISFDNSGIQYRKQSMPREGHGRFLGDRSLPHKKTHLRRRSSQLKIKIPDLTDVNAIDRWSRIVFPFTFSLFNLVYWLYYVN
- Sequence (P18507 40-475): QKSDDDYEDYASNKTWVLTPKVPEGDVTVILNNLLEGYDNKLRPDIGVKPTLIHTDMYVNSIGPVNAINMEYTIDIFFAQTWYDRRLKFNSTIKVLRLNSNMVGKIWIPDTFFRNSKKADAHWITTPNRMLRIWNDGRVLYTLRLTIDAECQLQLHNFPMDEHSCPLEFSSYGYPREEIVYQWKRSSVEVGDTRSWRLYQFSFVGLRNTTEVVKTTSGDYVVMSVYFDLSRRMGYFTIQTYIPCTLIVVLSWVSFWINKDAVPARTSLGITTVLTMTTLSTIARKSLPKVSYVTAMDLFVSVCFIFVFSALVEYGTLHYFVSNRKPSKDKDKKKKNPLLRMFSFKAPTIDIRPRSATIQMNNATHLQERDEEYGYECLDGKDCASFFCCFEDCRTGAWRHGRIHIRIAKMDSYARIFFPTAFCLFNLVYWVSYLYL
- procedure_text: cell-based
- condition_notes: oocyte electrophysiology EC50 α5β3γ2, Xenopus laevis oocytes, human subunits, GABA at EC10
Catalogue of molecules with associated pEC50
// scale note: pEC50 = -log10(conc_M); give the bare number

Field: example entries. Status: answers known.
O=c1c2c[nH]c3ccccc3n-2c(=O)n1-c1ccc(F)cc1; 7.09
CC1CC(=O)c2c(C(=O)Nc3ccc(F)cc3)c[nH]c2C1 (stereo not drawn); 7.40

Now look at this one.
pEC50 lookup needed for O=c1c(-c2ccccc2F)nc2c[nH]c3ccccc3n1-2 , thanks.
7.44

###

- assay_target: α5β3γ2 GABAA subtype receptor (Homo sapiens, UniProt P18507+P31644)
- procedure_text: cell-based
- condition_notes: oocyte electrophysiology EC50 α5β3γ2, Xenopus laevis oocytes, human subunits, GABA at EC10
# pEC50 listing for each entry below
As a rule, pEC50 stands for the negative log10 of the concentration, concentration in M.

For orientation, consider the following solved cases.
O=C(Nc1ccccc1)c1c[nH]c2c1C(=O)CCCC2 [compound 13]; 7.64
O=C(Nc1ccc(OCCO)cc1)c1c[nH]c2c1C(=O)CCC2 [compound 12]; 7.72
Cc1nnc2n1-c1ccc(Cl)cc1C(c1ccccc1)=NC2 [Alprazolam, reference compound]; 8.00
CCOc1ccc(NC(=O)c2c[nH]c3c2C(=O)CCC3)cc1 [compound 3]; 7.44

Which pEC50 reading was recorded for the compound O=C1C2C=Nc3ccccc3C2=NN1c1ccccc1 (centres unmarked) [CGS 8216, reference compound] ?
9.00

###

Listed next: entries and their corresponding EC50.
- assay_target: α5β3γ2 GABAA subtype receptor (Homo sapiens, UniProt P18507+P31644)
- procedure_text: cell-based
- condition_notes: Xenopus laevis oocytes, human subunits, GABA at EC10; read-out: oocyte electrophysiology EC50 α5β3γ2
Express the result in nM but write the number alone.

Example entries and their recorded answers appear below.
O=c1[nH]c2c(n1-c1nc3ccc(F)c(F)c3o1)CCCCC2; 174
CNCc1ccc(NC(=O)c2c[nH]c3c2C(=O)CCCC3)cc1; 186
CCOc1ccc(NC(=O)c2c[nH]c3c2C(=O)CCC3)cc1; 186
COc1ccc(F)c(-c2ncc3[nH]c4c(c3n2)CCCC4)c1; 847

Shifting focus to the compound that follows.
So what does the record say about EC50 for COc1ccc(NC(=O)c2c[nH]c3c2C(=O)CC(C)(C)C3)c(F)c1 ?
108

###

- assay_target: α2β3γ2 GABAA subtype receptor (Homo sapiens, UniProt P18507+P47869)
- Sequence (P47869 29-451): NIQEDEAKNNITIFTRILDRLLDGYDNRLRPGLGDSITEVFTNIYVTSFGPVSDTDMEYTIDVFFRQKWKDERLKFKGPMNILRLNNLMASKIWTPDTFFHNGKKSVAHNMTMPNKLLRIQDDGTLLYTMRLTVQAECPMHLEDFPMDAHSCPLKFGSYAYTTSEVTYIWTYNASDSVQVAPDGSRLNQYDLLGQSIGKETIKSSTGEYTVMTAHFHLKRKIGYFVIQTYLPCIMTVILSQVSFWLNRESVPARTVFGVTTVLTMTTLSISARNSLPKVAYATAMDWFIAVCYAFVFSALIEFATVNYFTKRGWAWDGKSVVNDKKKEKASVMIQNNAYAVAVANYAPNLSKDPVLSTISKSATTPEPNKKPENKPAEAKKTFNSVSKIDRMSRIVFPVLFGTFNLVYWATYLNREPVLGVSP
- Sequence (P28472 26-473 partner): as the sequence (P28472 26-473 partner) above
- Sequence (P18507 40-475): as the sequence (P18507 40-475) above
- procedure_text: cell-based
- condition_notes: Xenopus laevis oocytes, human subunits, GABA at EC10; negative = inverse agonism
- Experimental: The in vitro efficacy and EC50 value of the test compound may be determined by measuring the chloride flux at the surface of a cell expressing the α,β, and γ subunits of the GABAA receptor in response to GABA by the two electrode voltage-clamp technique. […] Specificity of a compound for the Ro15-1788 site is determined following completion of the concentration/effect curve. […] Percent change due to addition of compound is calculated as described above. […]
Below, each entry is listed alongside its reported oocyte electrophysiology maximum potentiation α2β3γ2.
Give just the number in %; leave the unit off.

Consider the reported oocyte electrophysiology maximum potentiation α2β3γ2 for these compounds:
O=c1[nH]c2c(n1-c1nc3ccc(F)c(F)c3o1)CCCCC2 [compound 7]; 51
CCOc1ccc(-n2c(=O)c3c[nH]c4ccccc4n-3c2=O)cc1 [compound 1]; 71
O=c1c(-c2ccccc2F)nc2c[nH]c3ccccc3n1-2 [compound 2]; 40
COc1ccc(NC(=O)c2c[nH]c3c2C(=O)CC(C)(C)C3)c(F)c1 [compound 6]; 72
CNCc1ccc(NC(=O)c2c[nH]c3c2C(=O)CCCC3)cc1 [compound 4]; 66
O=C(Nc1cccc(F)c1)c1c[nH]c2c(c1=O)CCC2 [compound 5]; 44

Now consider a different compound.
Could you tell me which oocyte electrophysiology maximum potentiation α2β3γ2 is on file for CC1CC(=O)c2c(C(=O)Nc3ccc(F)cc3)c[nH]c2C1 (stereo not shown) [compound 8] ?
42
